target: human FGFR2b on KATO III cells (human, UniProt P21802); experiment: FACS
Sequence (P21802 22-377): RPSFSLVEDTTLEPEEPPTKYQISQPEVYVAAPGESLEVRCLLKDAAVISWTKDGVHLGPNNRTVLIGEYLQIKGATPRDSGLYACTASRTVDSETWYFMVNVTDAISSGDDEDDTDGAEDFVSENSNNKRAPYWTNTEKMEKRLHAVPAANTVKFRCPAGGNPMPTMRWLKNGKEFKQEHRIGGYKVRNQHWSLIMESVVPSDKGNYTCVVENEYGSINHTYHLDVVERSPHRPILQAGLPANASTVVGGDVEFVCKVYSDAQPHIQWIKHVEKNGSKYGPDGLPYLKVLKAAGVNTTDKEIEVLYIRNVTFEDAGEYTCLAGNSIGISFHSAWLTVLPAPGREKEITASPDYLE
Outcome Measure: EC50 (µg/mL)
Field: numeric (µg/mL). Do not append units.

Below: 4 binders and their reported EC50.
| Binder | Value Units | EC50 |
| --- | --- | --- |
| 2B1 (antibody, V domains shown) VH: EVQLQQSGAELVKPGASVKMSCKASGYTFASYNLHWVKQTPGQGLEWIGLIYPENGDTSYNQKFKGKATLTADKSSSTAYIQLSSLTSEDSAVYFCARGGFDYWGQGTSLTVSS VL: DIQMIQSPASLSVSVGETVTITCRASENIYSNLAWYQQKQGKSPQLLVYNAKTLADGVPSRFSGSGSGTQYSLKINSLQPEDFGSYYCQHFWSTPYTFGGGTKLEIK | µg/mL | 0.195 |
| 1D7 (antibody, V domains shown) VH: QIQLQQSGAELVKPGASVKMSCKASGYTFRYYNMHWVKRTPGQGLEWIGLIYPDNGDTSYNQKFKGKATLTADTSSSTAYMQLSSLTSEDSAVYYCARGGLDYWGQGTSLTVSS VL: DIQMTQSPSSMSASLGDRITITCQATQDIVKNLNWYQQKPGKPPSFLIYYATELAEGVPSRFSGSGSGSDYSLTISNLESEDFADYYCLQFYEFPLTFGAGTKLELK | µg/mL | 0.167 |
| 1A3 (antibody, V domains shown) VH: QVQLQQPGAELVKPGASVKMSCKASGYTFASYNLHWVKQTPGQGLEWIGLIYPENGDTSYNQKFKGKATLTADKSSSTAYIQLSSLTSEDSAVYFCARGGFDYWGQGTTLTVSQ VL: DIQMTQSPASLSASVGETVTITCGASENIYGALNWYQRKQGKSPQLLIYGATNLADGMSSRFSGSGSGRQYSLKISSLHPDDVATYYCQNVLSTPYTFGGGTKLEIK | µg/mL | 0.0656 |
| 3A12 (antibody, V domains shown) VH: EVQLQQSGAELVKPGASVKMSCKASGYTFSFYNVHWVRQTPGQGLEWIGLIYPDNGDTSYNQKFKAKATLTADKSSSAAYMQLSSLTSEDSAVYYCARGGFDYWGQGTSLTVSS VL: DIVMTQSHKFMSTSVGDRVNITCKASQDVSTAVAWYQQKPGQSPKLLIYSASYRYSGVPDRFTGSGSGTDFTFTISSVQAEDLAVYYCQQHYSTPYTFGGGTKLEMK | µg/mL | 0.292 |

# next binder below
Input line: Quick one: EC50 of 3E7 (antibody, V domains shown) VH: QVQLQQSGAELVKPGASVKMSCKASGYTFTIYNIHWVRQTPGQGLEWIGLIYPDNGDTSYNQKFKAKATLTADKSSSTAYMQLSSLTSEDSAVYYCARGGFDYWGQGTTLTVSS VL: NIVMTQSQKFMSTSVGDRVSVTCKASQNVGTNVAWYQQKPGQSPKALIYSASYRYSGVPDRFTGSGSGTDFTLTISGVQAEDLADYYCQQHYNTPYTFGGGTKLEIK ?
Output line: 0.298

From: patent US20260317430
